Target: Orai1/STIM1 (Homo sapiens, UniProt Q96D31)
Construct: expressed in transfected cells; host or cells: HEK-293
Sequence (Q96D31 whole entry): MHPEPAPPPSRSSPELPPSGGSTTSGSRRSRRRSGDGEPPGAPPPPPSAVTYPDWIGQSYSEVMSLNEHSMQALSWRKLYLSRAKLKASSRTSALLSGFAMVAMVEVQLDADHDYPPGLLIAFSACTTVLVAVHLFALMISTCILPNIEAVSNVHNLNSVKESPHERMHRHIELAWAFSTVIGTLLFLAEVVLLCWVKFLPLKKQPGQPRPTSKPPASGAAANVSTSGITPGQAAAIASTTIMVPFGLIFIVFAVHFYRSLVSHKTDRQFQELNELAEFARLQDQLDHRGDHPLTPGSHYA
Experiment: Fluorescence-based assay of store-operated calcium entry in Orai1/STIM1 stable cells
Assay type: cell-based
Conditions: Table iii; HEK-293 cells stably expressing human STIM1 and Orai1; 50% inhibition of Peak-Basal fluo-4 signal; read-out: Orai1/STIM1 (IC50, μmol)
endpoint: IC50

mol smiles	test target	reported value
Cc1cc2c(cc1-c1ccc(NCc3c(F)cccc3F)cc1)OC(F)(F)O2	Orai1/STIM1 (Homo sapiens, UniProt Q96D31)	> 1.2 µM
Cn1nc(C(F)(F)F)cc1-c1c(F)cc(NCc2c(F)cccc2F)cc1F	Orai1/STIM1 (Homo sapiens, UniProt Q96D31)	0.6 to 1.2 µM
Cc1cc(F)ccc1CNc1ccc(-n2nc(C(F)(F)F)cc2C)c(F)c1	Orai1/STIM1 (Homo sapiens, UniProt Q96D31)	0.6 to 1.2 µM
Cn1nc(C(F)(F)F)cc1-c1ccc(NCc2ccccc2F)cc1F	Orai1/STIM1 (Homo sapiens, UniProt Q96D31)	< 0.6 µM
CCn1nc(C(F)(F)F)cc1-c1ccc(NCc2ccccc2F)cc1F	Orai1/STIM1 (Homo sapiens, UniProt Q96D31)	< 0.6 µM
Cc1nn(C(F)F)cc1-c1ccc(NCc2ccccc2F)cc1	Orai1/STIM1 (Homo sapiens, UniProt Q96D31)	0.6 to 1.2 µM
